# method description: self-splicing fitness, log relative to wild type (ln ratio); higher = more splicing; Tetrahymena group I intron in knt gene, E. coli kanamycin selection, DiMSum; sequences stand for … in CUCUCU…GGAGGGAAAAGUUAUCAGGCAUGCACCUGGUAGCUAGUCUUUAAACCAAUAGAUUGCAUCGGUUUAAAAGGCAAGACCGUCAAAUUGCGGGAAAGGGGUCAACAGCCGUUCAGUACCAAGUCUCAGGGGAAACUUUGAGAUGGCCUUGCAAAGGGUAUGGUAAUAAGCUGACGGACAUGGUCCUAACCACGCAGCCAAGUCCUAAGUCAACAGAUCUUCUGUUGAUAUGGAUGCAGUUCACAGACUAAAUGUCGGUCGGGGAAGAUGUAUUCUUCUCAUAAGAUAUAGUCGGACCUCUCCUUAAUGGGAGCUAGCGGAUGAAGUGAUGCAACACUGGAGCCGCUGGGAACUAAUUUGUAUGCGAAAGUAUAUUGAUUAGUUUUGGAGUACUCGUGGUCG;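 also: selection with 25 µg/mL kanamycin versus none on LB agar overnight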
# condition notes: 30 °C
Lab note: anything with self-splicing fitness (ln) at or over -3 counts as yes; the rest go in no.

Here are 5 sequences together with their reported answers.
sequence code: UCCAAGCAAUAUUACGUUUU
class label: no
//
sequence code: UACAAGCAAUAUUACGCGAC
class label: no
//
sequence code: UGCCAGCAAUAUUACGACGG
class label: no
//
sequence code: AUGCAGCAAUAUUACGUUUC
class label: no
//
sequence code: AAACAGCAAUAUUACGCACC
class label: yes

Challenge: Is the recorded value of self-splicing fitness (ln) equal to or greater than -3 for this sequence? `AUAGAGCAAUAUUACGAGUG`
Response given: no

Challenge: Is the recorded value of self-splicing fitness (ln) equal to or greater than -3 for this sequence? `AUCAAGCAAUAUUACGCCAU`
Response given: yes

----------
Examples of sequences with documented self-splicing fitness (ln) follow.
# method description: self-splicing fitness, log relative to wild type (ln ratio); higher = more splicing; Tetrahymena group I intron in knt gene, E. coli kanamycin selection, DiMSum; sequences stand for … in CUCUCU…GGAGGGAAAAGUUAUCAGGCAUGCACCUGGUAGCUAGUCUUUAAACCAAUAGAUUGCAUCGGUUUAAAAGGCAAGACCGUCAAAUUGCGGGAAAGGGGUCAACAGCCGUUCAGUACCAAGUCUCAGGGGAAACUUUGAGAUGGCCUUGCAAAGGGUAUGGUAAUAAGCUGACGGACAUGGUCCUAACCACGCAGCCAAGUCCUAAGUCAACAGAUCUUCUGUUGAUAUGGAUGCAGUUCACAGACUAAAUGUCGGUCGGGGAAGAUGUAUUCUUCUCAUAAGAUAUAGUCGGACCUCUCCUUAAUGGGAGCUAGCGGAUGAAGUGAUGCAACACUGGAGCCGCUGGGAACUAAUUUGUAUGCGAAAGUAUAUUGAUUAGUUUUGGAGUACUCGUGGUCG
# condition notes: 37 °C

Completed entries (count: 3):
sequence code: UCGCAGCAAUAUUACGUCCU
result: -0.105
//
sequence code: UCAUAGCAAUAUUACGUGGA
result: -1.24
//
sequence code: AAAUAGCAAUAUUACGACGU
result: -0.646

The reported value for `UAUCAGCAAUAUUACGACAA` in terms of self-splicing fitness (ln) is 0.237

The reported value for `AUAGAGCAAUAUUACGCUCC` in terms of self-splicing fitness (ln) is -1.91

The reported value for `CGCUAGCAAUAUUACGCUUC` in terms of self-splicing fitness (ln) is -2.39

This collection of values is drawn from the supplement of paper PMC7877785.
